Data origin, for the record: paper PMC3669024

assayed-target: Trica5-HT1 (Tribolium castaneum, UniProt R9ULB8)
Sequence (R9ULB8 entry or part of it): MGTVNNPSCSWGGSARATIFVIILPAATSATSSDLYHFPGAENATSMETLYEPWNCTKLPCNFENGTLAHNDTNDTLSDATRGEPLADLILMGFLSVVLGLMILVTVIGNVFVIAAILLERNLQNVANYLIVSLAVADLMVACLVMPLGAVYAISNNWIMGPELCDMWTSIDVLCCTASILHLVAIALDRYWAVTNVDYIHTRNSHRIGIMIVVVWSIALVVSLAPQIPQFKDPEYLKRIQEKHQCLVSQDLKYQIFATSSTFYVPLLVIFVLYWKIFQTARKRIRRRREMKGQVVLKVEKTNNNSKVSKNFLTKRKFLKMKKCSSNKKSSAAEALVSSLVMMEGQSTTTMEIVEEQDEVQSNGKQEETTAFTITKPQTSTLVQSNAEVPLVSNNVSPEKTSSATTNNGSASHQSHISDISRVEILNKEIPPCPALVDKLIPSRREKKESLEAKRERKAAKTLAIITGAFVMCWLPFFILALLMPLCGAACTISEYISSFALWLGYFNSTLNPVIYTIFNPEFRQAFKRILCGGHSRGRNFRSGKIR
assay-overview: Aequorin-luminescence assay, antagonist inhibition of 5-HT mediated activation of Trica5-HT1 in CHO-WTA11 cells
Format: cell-based
test-settings: inhibition of 5-HT (100 nM) mediated activation, CHO-WTA11 cells; read-out: IC50
Counter-ions that a name gives are not always drawn.
Listed below: IC50 values for each entry.

compound: CSc1ccc2c(c1)C(N1CCN(C)CC1)Cc1ccccc1S2 (centres unmarked) [methiothepin, methiothepin mesylate]
IC50, µM: 16.4
--
compound: CC1CCN(CC[C@H]2CCCN2S(=O)(=O)c2cccc(O)c2)CC1.Cl [SB-269970, SB-269970 hydrochloride]
IC50, µM: 205
